test protocol: NCI Yeast Anticancer Drug Screen. Data for the mlh1 rad18 strain (AID 175)
test conditions: S. cerevisiae mlh1 rad18 strain growth inhibition; at 50.0 µM; hits give high values
Compounds without any hit were thinned out: in the full panel of roughly 79,000, 15% have a hit. Where a SMILES comes first, the peptide text is derived from it. [ ]: non-standard residue; d: D form. Abu = CC[CH](N)C(=O)O
Would you mind classing the entries by growth inhibition? Ranges: bucket A: < -10%; bucket B: ≥ -10% and < 10%; bucket C: ≥ 10%

Which category fits this record: COC(=O)C1(OC(=O)Sc2ccccc2)CCN(C)CC1 bucket A

Which category fits this record: COC(=O)C(=C(C)C)S(=O)c1ccccc1 (centres undefined) bucket B

Which category fits this record: Cc1nc2nc(NCCCN(C)C)nc(NCCCN(C)C)c2nc1C bucket C

Which category fits this record: C=CC1CCC[N+]1(CC(=O)OCC)Cc1ccccc1 (centres undefined) bucket A

Which category fits this record: NC(N)=N/N=C(\c1nc2ccc([N+](=O)[O-])cc2[nH]c1=O)C(O)c1ccc([N+](=O)[O-])cc1 (centres undefined) bucket B

Which category fits this record: COc1cc(OC)cc(C(=O)NN)c1 bucket A

Which category fits this record: Cc1cccc(Nc2c(C(=O)O)cnc3cc4c(cc23)OCO4)c1 bucket B

Which category fits this record: Nc1ccc(N=Nc2ccncc2)c2ccccc12 bucket C

Which category fits this record: NC(=S)N/N=C1/C(=O)N(c2ccccc2)C(=O)C1C(=O)Nc1ccccc1 (centres undefined) bucket C

Which category fits this record: CC(=O)Nc1ccc([N+](=O)[O-])cc1[N+](=O)[O-] bucket B

Which category fits this record: O=C1CSC(c2c[nH]c3ccccc23)N1c1cccc([N+](=O)[O-])c1 (centres undefined) bucket A

Which category fits this record: CC1(C)CCCC/C1=N\Nc1ccc([N+](=O)[O-])cc1[N+](=O)[O-] bucket C

Which category fits this record: COc1cc(N)c2c(c1)SC(c1ccccc1)C(=O)N2 (centres undefined) bucket C

Which category fits this record: CCC(N)C(=O)NC(C(N)=O)C(C)C (centres undefined) (H-[Abu]-Val-NH2; configuration not given here) bucket C

Which category fits this record: C[N+]1(C)CCN(S(=O)(=O)c2ccccc2)c2ccccc21 bucket A

Which category fits this record: CCOC(=O)C1=C(c2ccccc2)N=c2ccccc2=S1C (centres undefined) bucket C

Which category fits this record: CC(=O)N1CC=CCC1 bucket B

Which category fits this record: Cc1cc2nc(C(C)C(=O)c3ccc(Cl)cc3)c(=O)[nH]c2cc1C (centres undefined) bucket B

Which category fits this record: CC1(C(=O)O)CCCC2(C)c3ccc(O)cc3CCC12 (centres undefined) bucket C

Which category fits this record: CNC(=O)OCc1c(COC(=O)NC)c(C)n(-c2ccccc2)c1C bucket A

Which category fits this record: CCCCC(=O)c1ccc2ccccc2c1O bucket B

Which category fits this record: Nc1nc(/C=C(/O)c2ccccc2)c2ncn(C3OC(CO)C(O)C3O)c2n1 (centres undefined) bucket A

Which category fits this record: CCN1C(=O)C(N=[N+]=[N-])(c2ccccc2)C(=O)c2ccccc21 (centres undefined) bucket B

Which category fits this record: N#Cc1ccc(/C=C\c2ccc(C#N)cc2)cc1 bucket A

###

Would you kindly list growth inhibition for each of these compounds?
test protocol: NCI Yeast Anticancer Drug Screen. Data for the cln2 rad14 strain (AID 165);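 also: 0% = growth equal to vehicle treated cultures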
test conditions: S. cerevisiae cln2 rad14 strain, at 50.0 µM, hits give high values
Compounds without any hit were thinned out: in the full panel of roughly 79,000, 15% have a hit.
Please give a number only; it is taken to be in %.

Reported growth inhibition for CC(C)C(NC(=O)C(Cc1ccccc1)NC(=O)[C@H]1CCC[C@H]1NC(=O)C(Cc1ccc(OC(C)(C)C)cc1)NC(=O)OC(C)(C)C)C(N)=O (stereo partly specified) : what is it? 18.7

Reported growth inhibition for CC(C)C1OC2(CCCC2)OCC1(C)C (stereo unspecified) : what is it? -21.8

Reported growth inhibition for Cc1noc2ncnc(NCCCN(C)C)c12 : what is it? -6.95

Reported growth inhibition for OCCOCn1nc(-c2ccccc2)nc1-c1cnccn1 : what is it? -27.9

Reported growth inhibition for Cc1cc2ccccc2c[n+]1CC(=O)CC([O-])(C(F)(F)F)C(F)(F)F : what is it? 4.1

Reported growth inhibition for O=C1CC(c2ccccc2)S(=O)(=O)c2ccccc2N1 (stereo unspecified) : what is it? 10.2
